pIC50: −log10 of the molar value.
The compounds below each have a reported pIC50 tested on Hepatocyte growth factor receptor (Homo sapiens, UniProt P08581); the values come from various publications.

Here is how some compounds turned out for pIC50.
Compound: C[C@@H](Oc1cc(-c2cnnn2C)cnc1N)c1cc(F)ccc1-n1nccn1
Tested System: Hepatocyte growth factor receptor (Homo sapiens, UniProt P08581)
Reported Measurement: 4.84

Compound: CCOC(=O)Nc1cccc(Cn2nc(-c3cccc(CNC(=O)Cc4nnn[nH]4)c3)ccc2=O)c1
Tested System: Hepatocyte growth factor receptor (Homo sapiens, UniProt P08581)
Reported Measurement: 6.00 to 8.00

Compound: C[C@H](c1ccc2ncsc2c1)c1nnc2ccc(-c3cccc(C#N)c3)nn12
Tested System: Hepatocyte growth factor receptor (Homo sapiens, UniProt P08581)
Reported Measurement: 6.00 to 7.00

Compound: Cn1cc(-c2cc(Oc3ccc(NC(=O)Nc4cc(C(C)(C)C)no4)c(F)c3F)ccn2)cn1
Tested System: Hepatocyte growth factor receptor (Homo sapiens, UniProt P08581)
Reported Measurement: > 7.00

Compound: COCCc1nn2c(Sc3ccc4ncc(-c5cnn(C)c5)cc4c3)nnc2s1
Tested System: Hepatocyte growth factor receptor (Homo sapiens, UniProt P08581)
Reported Measurement: > 7.00

// pIC50 lookup, key: CNC(=O)c1ccc(-c2ccc3nnc(Sc4ccc5ncn(C)c5c4)n3n2)cc1F > 7.00

GET /values?readout=pIC50&item= CN(C)C(=O)Nc1cccc(CN2N=C(c3cc(Cl)ccc3O)CSC2=O)c1 6.00 to 8.00

Give its pIC50 value. Item: O=C(O)CCNc1cccc(Br)n1 < 4.00

Which pIC50 is listed for NC(=O)NCC#Cc1cnc(N)c(-c2nc3ccccc3s2)c1 ? 4.70 to 6.00

Consider the compound N#Cc1cccc(-c2ccc(=O)n(Cc3cccc(-c4ncc(OCC5CCN(CC6CC6)CC5)cn4)c3)n2)c1 and give its measured pIC50. 6.00 to 8.00

Could you tell me which pIC50 is on file for CN(C)c1nc2cc(C(=O)Nc3ccc(Oc4ccnc(N)c4)c(F)c3)c(=O)n(-c3ccc(F)cc3)c2s1 ? > 8.00

Recorded pIC50 for CCOc1ccn(-c2ccc(F)cc2)c(=O)c1C(=O)Nc1ccc(Oc2ccnc3cc(OC)c4c(c23)OCCO4)cc1Cl , please? ≥ 7.30

* * *

pIC50: −log10 of the molar value.
Collected pIC50 for Hepatocyte growth factor receptor (Homo sapiens, UniProt P08581) across several studies; compounds listed below.

These solved cases illustrate the format of a correct answer.
Smiles Record: CCOC(=O)Nc1cccc(Cn2nc(-c3ccc(F)cc3)ccc2=O)c1
pIC50: 6.00 to 8.00

Smiles Record: COc1cccc(Oc2ccc3nnc(Cc4ccc5ncccc5c4)n3n2)c1
pIC50: 6.00 to 7.00

Smiles Record: CC(C)(O)COc1cc2nccc(Oc3ccc(NC(=O)c4cccn(-c5ccc(F)cc5)c4=O)c(Cl)c3)c2c2c1OCCO2
pIC50: ≥ 7.30

Smiles Record: Fc1ccc(F)c(CN2CCNc3ncc(-c4cccc(N5CCOCC5)c4)cc32)c1Cl
pIC50: 6.00 to 7.00

Smiles Record: CN(C)CCn1nc(C(C)(C)C)cc1NC(=O)Nc1ccc(Oc2ccnc(-c3cnn(C)c3)c2)cc1F
pIC50: > 5.00

Recorded pIC50 for O=C(Nc1cccc(CC(=O)N2CCC(c3cc(Cl)ccc3Cl)=N2)c1)OCCCN1CCOCC1 , please? 8.60

Look at this compound and give its reported pIC50. Cn1cc(-c2cc(Oc3ccc(NC(=O)Nc4cc(C(C)(C)C)no4)c(F)c3)ccn2)cn1 > 6.00

Using the record for CN(C)CCCOC(=O)Nc1cccc(CN2N=C(c3ccc(C#N)cc3)CSC2=O)c1 , report its pIC50. 6.00 to 8.00

What does the data say about its pIC50? Entry: N#Cc1cccc(-c2ccc3nnc(Sc4ccc5ncccc5c4)n3n2)c1 > 7.00

Which pIC50 is listed for CCOC(=O)Nc1cccc(Cn2nc(-c3cccc(CNC(=O)CCN4CCCCC4)c3)ccc2=O)c1 ? 6.00 to 8.00

Name the reported pIC50 value associated with the compound Cc1ccc2nnc(Cc3cc4cc(-c5cnn(C)c5)cnc4cc3F)n2n1 > 7.00

For Fc1cccc(CNc2nnc(-c3c[nH]c4ncccc34)o2)c1 , what is its reported pIC50? 5.00 to 7.00

Using the record for CC(C)n1cc(C(=O)Nc2ccc(Oc3ccnc4cc(OCC5(N)CC5)c5c(c34)OCCO5)c(F)c2)c(=O)n(-c2ccc(F)cc2)c1=O , report its pIC50. 6.30 to 7.30

Could you tell me which pIC50 is on file for CN1CCN(Cc2cccc(-c3cc4c(s3)Cc3c(-c5ccc6cnn(C)c6c5)n[nH]c3-4)c2)CC1 ? < 6.00

Which measured pIC50 value corresponds to CNCCOc1cc2nccc(Oc3ccc(NC(=O)c4c(OC)ccnc4F)c(F)c3F)c2cc1OC ? ≥ 7.00

Query (compound): Cc1ccc2nnc(Cc3ccc4ncc(-c5cnn(C)c5)cc4c3)n2n1 ; field requested: pIC50 > 7.00

For the compound Cn1cc(-c2nn3c(Sc4ccc5ncccc5c4)nnc3s2)cn1 , what pIC50 is on record? > 7.00
